B1: MYBL2 (parent)
chain: FSPSQFLNFWNKQDTLELESPSLT

# Variants of: B1
# assay-name: protein stability index of a GFP-peptide fusion (GPS, HEK-293T) (PSI 1-6); higher = more stable;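 also: lentivirally expressed fusions sorted by FACS into six bins by GFP to DsRed ratio, PSI derived from sequencing read proportions per bin multiplied by bin number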
# run-conditions: c terminus: a fixed tail appended
# protein stability index per entry
The answer should be a number; do not append a unit.

- variant-label: "D14Q"
  protein stability index: 2.89
- variant-label: "S4W"
  protein stability index: 2.35
- variant-label: "S2Y"
  protein stability index: 1.63

Query variant follows.
Memo: `L16T` , reported protein stability index: 1.5
